# Experimental System: PTPN11-E76K mutant enzyme (Homo sapiens (Human), UniProt Q06124, E76K)
# Sequence (Q06124 whole entry E76K): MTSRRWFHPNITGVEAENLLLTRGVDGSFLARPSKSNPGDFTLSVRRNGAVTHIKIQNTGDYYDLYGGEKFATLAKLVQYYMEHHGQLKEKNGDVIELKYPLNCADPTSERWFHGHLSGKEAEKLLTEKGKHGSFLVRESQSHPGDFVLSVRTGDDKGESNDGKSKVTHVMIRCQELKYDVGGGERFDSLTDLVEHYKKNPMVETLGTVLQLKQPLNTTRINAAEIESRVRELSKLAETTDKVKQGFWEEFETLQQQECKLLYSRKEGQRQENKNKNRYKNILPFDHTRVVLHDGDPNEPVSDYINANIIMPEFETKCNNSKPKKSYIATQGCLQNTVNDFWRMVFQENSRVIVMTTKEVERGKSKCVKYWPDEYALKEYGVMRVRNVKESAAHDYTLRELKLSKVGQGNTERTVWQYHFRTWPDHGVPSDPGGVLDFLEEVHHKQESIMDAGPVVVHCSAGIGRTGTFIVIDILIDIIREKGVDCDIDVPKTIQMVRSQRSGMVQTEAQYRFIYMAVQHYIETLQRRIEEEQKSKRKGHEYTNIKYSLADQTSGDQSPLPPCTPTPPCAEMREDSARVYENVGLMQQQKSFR
# Test Name: PTPN11 enzymatic assay (DiFMUP phosphatase activity)
# Assay Conditions: full length PTPN11-E76K mutant, 250 pM enzyme, DiFMUP 50 μM substrate

Compound: CNc1nccc(-c2n[nH]c3nc(N4CCC(C)(N)CC4)c(CO)nc23)c1Cl
Experimental System: PTPN11-E76K mutant enzyme (Homo sapiens (Human), UniProt Q06124, E76K)
IC50, nM: 17
//
Compound: CC1(N)CCN(c2nc3[nH]nc(-c4cccc(Cl)c4Cl)c3nc2C#N)CC1
Experimental System: PTPN11-E76K mutant enzyme (Homo sapiens (Human), UniProt Q06124, E76K)
IC50, nM: 465
//
Compound: CCNc1nccc(-c2n[nH]c3nc(N4CCC5(CC4)CO[C@@H](C)[C@H]5N)c(Cl)nc23)c1Cl
Experimental System: PTPN11-E76K mutant enzyme (Homo sapiens (Human), UniProt Q06124, E76K)
IC50, nM: 6
//
Compound: CC1(N)CCN(c2nc3[nH]nc(-c4cccc(Cl)c4Cl)c3nc2C(N)=O)CC1
Experimental System: PTPN11-E76K mutant enzyme (Homo sapiens (Human), UniProt Q06124, E76K)
IC50, nM: 90
//
Compound: CC1(N)CCN(c2nc3[nH]nc(-c4cccc(Cl)c4Cl)c3nc2Br)CC1
Experimental System: PTPN11-E76K mutant enzyme (Homo sapiens (Human), UniProt Q06124, E76K)
IC50, nM: 317
//
Compound: CC1(N)CCN(c2nc3[nH]nc(-c4cccc(Cl)c4Cl)c3nc2-c2cc[nH]n2)CC1
Experimental System: PTPN11-E76K mutant enzyme (Homo sapiens (Human), UniProt Q06124, E76K)
IC50, nM: 397
//
Compound: COc1nc2c(-c3cccc(Cl)c3Cl)n[nH]c2nc1N1CCC(C)(N)CC1 [Example 6, bis(2,2,2-trifluoroacetate)]
Experimental System: PTPN11-E76K mutant enzyme (Homo sapiens (Human), UniProt Q06124, E76K)
IC50, nM: 950
//
Compound: CC1(N)CCN(c2nc3[nH]nc(-c4cccc(Cl)c4Cl)c3nc2C(=O)NO)CC1
Experimental System: PTPN11-E76K mutant enzyme (Homo sapiens (Human), UniProt Q06124, E76K)
IC50, nM: 224
//
Compound: CC1(N)CCN(c2nc3[nH]nc(-c4cccc(Cl)c4Cl)c3nc2CF)CC1
Experimental System: PTPN11-E76K mutant enzyme (Homo sapiens (Human), UniProt Q06124, E76K)
IC50, nM: 1
//
Compound: CC1(N)CCN(c2nc3[nH]nc(-c4cccc(Cl)c4Cl)c3nc2C=O)CC1
Experimental System: PTPN11-E76K mutant enzyme (Homo sapiens (Human), UniProt Q06124, E76K)
IC50, nM: 190
//
Compound: Cc1nc2c(-c3cccc(Cl)c3Cl)n[nH]c2nc1N1CCC(C)(N)CC1
Experimental System: PTPN11-E76K mutant enzyme (Homo sapiens (Human), UniProt Q06124, E76K)
IC50, nM: 68
//
Compound: C[C@@H]1OCC2(CCN(c3nc4[nH]nc(-c5ccnc(OC6COC6)c5Cl)c4nc3CO)CC2)[C@@H]1N
Experimental System: PTPN11-E76K mutant enzyme (Homo sapiens (Human), UniProt Q06124, E76K)
IC50, nM: 48

###

# Experimental System: PTPN11-E76K mutant enzyme (Homo sapiens (Human), UniProt Q06124, E76K)
# Test Name: PTPN11 enzymatic assay (DiFMUP phosphatase activity)
# Assay Conditions: full length PTPN11-E76K mutant, 250 pM enzyme, DiFMUP 50 μM substrate
Labelling: IC50 reported below 400 nM becomes Criterion met; at or above becomes Criterion not met.

Compound: CC1(N)CCN(c2nc3[nH]nc(-c4cccc(Cl)c4Cl)c3nc2C(F)F)CC1
Experimental System: PTPN11-E76K mutant enzyme (Homo sapiens (Human), UniProt Q06124, E76K)
Label Class: Criterion met

Compound: CC1(N)CCN(c2nc3[nH]nc(-c4cccc(Cl)c4Cl)c3nc2O)CC1
Experimental System: PTPN11-E76K mutant enzyme (Homo sapiens (Human), UniProt Q06124, E76K)
Label Class: Criterion not met

Compound: CNc1nccc(-c2n[nH]c3nc(N4CCC5(CC4)CO[C@@H](C)[C@H]5N)c(CO)nc23)c1Cl
Experimental System: PTPN11-E76K mutant enzyme (Homo sapiens (Human), UniProt Q06124, E76K)
Label Class: Criterion met

Compound: CCNc1nccc(-c2n[nH]c3nc(N4CCC5(CC4)CO[C@@H](C)[C@H]5N)c(C)nc23)c1Cl [Example 18, 2,2,2-trifluoroacetate]
Experimental System: PTPN11-E76K mutant enzyme (Homo sapiens (Human), UniProt Q06124, E76K)
Label Class: Criterion met

Compound: C[C@@H]1OCC2(CCN(c3nc4[nH]nc(-c5cccc(OC6COC6)c5Cl)c4nc3CO)CC2)[C@@H]1N
Experimental System: PTPN11-E76K mutant enzyme (Homo sapiens (Human), UniProt Q06124, E76K)
Label Class: Criterion not met

Compound: CC1(N)CCN(c2nc3[nH]nc(-c4cccc(Cl)c4Cl)c3nc2Cl)CC1
Experimental System: PTPN11-E76K mutant enzyme (Homo sapiens (Human), UniProt Q06124, E76K)
Label Class: Criterion met

Compound: CC1(N)CCN(c2nc3[nH]nc(-c4cccc(Cl)c4Cl)c3nc2CO)CC1
Experimental System: PTPN11-E76K mutant enzyme (Homo sapiens (Human), UniProt Q06124, E76K)
Label Class: Criterion met

Compound: CC(O)c1nc2c(-c3cccc(Cl)c3Cl)n[nH]c2nc1N1CCC(C)(N)CC1 (centres unmarked)
Experimental System: PTPN11-E76K mutant enzyme (Homo sapiens (Human), UniProt Q06124, E76K)
Label Class: Criterion met

###

# Tested on: KYSE-520 cells
# Test Name: pERK AlphaScreen
# Type: cell-based
# Assay Conditions: Homo sapiens, KYSE-520, 2 h, read-out: pERK Avg IC50 (nM)
Measured Endpoint: IC50 (nM)

Compound: CCNc1nccc(-c2n[nH]c3nc(N4CCC5(CC4)CO[C@@H](C)[C@H]5N)c(C)nc23)c1Cl [Example 18, 2,2,2-trifluoroacetate]
Experimental System: KYSE-520 cells
Value Units: nM
Numeric Readout: 20
--
Compound: COc1nc2c(-c3cccc(Cl)c3Cl)n[nH]c2nc1N1CCC(C)(N)CC1 [Example 6, bis(2,2,2-trifluoroacetate)]
Experimental System: KYSE-520 cells
Value Units: nM
Numeric Readout: 3820

// provenance: patent US10954243B2
